Values from ChEMBL document CHEMBL4622971

Test: Intrinsic clearance in rat hepatocytes at 0.5 uM incubated for 60 mins by LC-MS/MS analysis
Format: ADME, cell-based, Hepatocyte
Settings: 1 h
PARAMETER MEASURED: CLH (mL/min/g)
Response body: numeric value in mL/min/g, unit text excluded.

Briefly, CLH measured for `CNC(=O)c1cc(C(=O)NC2CC2)cn(Cc2ccccc2)c1=O` : 0.95

Briefly, CLH measured for `CNC(=O)c1cc(C(=O)NC2CC2)cn(Cc2cccc([C@@H](C)O)c2)c1=O` : 3

Briefly, CLH measured for `CNC(=O)c1cc(C(=O)NC2CC2)cn([C@H](C)c2ccccc2)c1=O` : 1.5

---

Experiment: Half life in beagle dog at 10.5 mg/kg, iv measured up to 7 hrs by LC-MS/MS analysis
Type: ADME, organism-based, Canis lupus familiaris
Settings: in vivo
PARAMETER MEASURED: half-life (h)
Response body: numeric value in h, unit text excluded.

Briefly, half-life measured for CNC(=O)c1cc(C(=O)NC2CC2)cn(Cc2ccccc2)c1=O [GSK620] : 5.7

---

Assay: Blood clearance in male Wistar Han rat at […], iv measured up to 7 hrs by LC-MS/MS analysis
Settings: whole blood
PARAMETER MEASURED: clearance at 7 h

Briefly, clearance at 7 h measured for `CNC(=O)c1cc(C(=O)NC2CC2)cn([C@H](C)c2ccccc2)c1=O` : 72 mL/min/kg

---

Assay: Blood clearance in male Wistar Han rat at 1 mg/kg, iv measured up to 7 hrs by LC-MS/MS analysis
Format: ADME, organism-based
Conditions: whole blood
Could you please report measured clearance for the items listed next?
Response body: numeric value in mL/min/kg, unit text excluded.

Briefly, clearance measured for `CCNC(=O)c1cc(C(=O)NC)c(=O)n(Cc2ccccc2)c1` : 12

Briefly, clearance measured for `CNC(=O)c1cc(C(=O)NC2CC2)cn(Cc2cccc3c2CCN3)c1=O` : 16

Briefly, clearance measured for `CNC(=O)c1cc(C(=O)NC2CC2)cn(Cc2cccc3[nH]ncc23)c1=O` : 42

Briefly, clearance measured for `CNC(=O)c1cc(C(=O)NC2CC2)cn(Cc2ccccc2)c1=O` : 12

Briefly, clearance measured for `CNC(=O)c1cc(C(=O)NC2CC2)cn(Cc2cccc3[nH]ccc23)c1=O` : 23

Briefly, clearance measured for `CNC(=O)c1cc(C(=O)NC2CC2)cn(Cc2cccc([C@@H](C)O)c2)c1=O` : 74

---

Assay: Distribution coefficient, logD of the compound at pH 7.4 by chromatography
Assay type: physicochemical
Could you please report measured chromatographic logD for the items listed next?

Briefly, chromatographic logD measured for `CNC(=O)c1cc(C(=O)NC2CCOCC2)cn(Cc2ccccc2)c1=O` : 2.8

Briefly, chromatographic logD measured for `CNC(=O)c1cc(C(=O)NC2CCC2)cn(Cc2ccccc2)c1=O` : 3.8

Briefly, chromatographic logD measured for `CNC(=O)c1cc(C(=O)NC2CC2)cn(Cc2ccccc2F)c1=O` : 3

Briefly, chromatographic logD measured for `CNC(=O)c1cc(C(=O)NC2CCC2)cn(Cc2ccncc2)c1=O` : 1.7

Briefly, chromatographic logD measured for `CNC(=O)c1cc(C(=O)NC(C)C)cn(Cc2ccccc2)c1=O` : 3.6

Briefly, chromatographic logD measured for `CNC(=O)c1cc(C(=O)NC2CC2)cn(Cc2cccc(OC)c2)c1=O` : 3

Briefly, chromatographic logD measured for `CNC(=O)c1cc(C(=O)NCCOC)cn(Cc2ccccc2)c1=O` : 2.7

Briefly, chromatographic logD measured for `CNC(=O)c1cc(C(=O)NC2CC2)cn(CC2CCCCC2)c1=O` : 4

Briefly, chromatographic logD measured for `CNC(=O)c1cc(C(N)=O)cn(Cc2ccccc2)c1=O` : 2

Briefly, chromatographic logD measured for `CNC(=O)c1cc(C(=O)NCCC2CCOCC2)cn(Cc2ccccc2)c1=O` : 3.6

Briefly, chromatographic logD measured for `CNC(=O)c1cc(C(=O)NC)c(=O)n(Cc2ccccc2)c1` : 2.4

Briefly, chromatographic logD measured for `CNC(=O)c1cc(C(=O)NC2CC2)cn(Cc2ccc(F)cc2)c1=O` : 3.2

Briefly, chromatographic logD measured for `CNC(=O)c1cc(C(=O)NC2CC2)cn(Cc2ccc(OC)cc2)c1=O` : 3

Briefly, chromatographic logD measured for `CCNC(=O)c1cc(C(=O)NC)c(=O)n(Cc2ccccc2)c1` : 3

Briefly, chromatographic logD measured for `CNC(=O)c1cc(C(=O)NC2CC2)cn(Cc2cccc([C@@H](C)O)c2)c1=O` : 2.2

Briefly, chromatographic logD measured for `CNC(=O)c1cc(C(=O)NC2CC2)cn(Cc2cccc3[nH]ncc23)c1=O` : 1.5

Briefly, chromatographic logD measured for `CNC(=O)c1cc(C(=O)NC2CC2)cn(Cc2cccc3cn[nH]c23)c1=O` : 2.2

Briefly, chromatographic logD measured for `CNC(=O)c1cc(C(=O)NC2CC2)cn(Cc2cccc(F)c2)c1=O` : 3.2

Briefly, chromatographic logD measured for `CNC(=O)c1cc(C(=O)NCCO)cn(Cc2ccccc2)c1=O` : 1.9

Briefly, chromatographic logD measured for `CNC(=O)c1cc(C(=O)NC2CC2)cn(Cc2cccc3cc[nH]c23)c1=O` : 3.7

Briefly, chromatographic logD measured for `CCNC(=O)c1cccn(Cc2ccccc2)c1=O` : 3.7

Briefly, chromatographic logD measured for `CNC(=O)c1ccc(=O)n(Cc2ccccc2)c1` : 1.6

Briefly, chromatographic logD measured for `CNC(=O)c1cc(C(=O)NC2CC2)cn(Cc2cccc3[nH]ccc23)c1=O` : 2.9

Briefly, chromatographic logD measured for `CNC(=O)c1cc(C(=O)NC2CC2)cn(Cc2ccccc2)c1=O` : 3.1

Briefly, chromatographic logD measured for `CNC(=O)c1cc(C(=O)NC2CC2)cn(CC2CCOCC2)c1=O` : 1.5

Briefly, chromatographic logD measured for `CNC(=O)c1cc(C(=O)NC2CC2)cn(Cc2ccc3nc[nH]c3c2)c1=O` : 1.2

Briefly, chromatographic logD measured for CNC(=O)c1cc(C(=O)NCCC2CCCNC2)cn(Cc2ccccc2)c1=O (centres undefined) : 1.6

Briefly, chromatographic logD measured for CNC(=O)c1cc(C(=O)NC2CC2)cn(CC2CCCCO2)c1=O (racemic) : 2.6

Briefly, chromatographic logD measured for `CNC(=O)c1cc(C(=O)NC2CC2)cn(Cc2cccc3[nH]c(C)nc23)c1=O` : 1.5

Briefly, chromatographic logD measured for `CNC(=O)c1cc(C(=O)NC2CC2)cn(Cc2nccc3[nH]ccc23)c1=O` : 1.7

Briefly, chromatographic logD measured for CNC(=O)c1cc(C(=O)NCCCC2CNCCO2)cn(Cc2ccccc2)c1=O (racemic) : 1.4

Briefly, chromatographic logD measured for `CNC(=O)c1cc(C(=O)NC2CC2)cn(Cc2cccc3c2CCN3)c1=O` : 2.1

Briefly, chromatographic logD measured for `CNC(=O)c1ccc(=O)n(Cc2cc(Br)ccc2F)c1` : 2.6

Briefly, chromatographic logD measured for `CNC(=O)c1cc(C(=O)NC2CCC2)cn(Cc2cccc(NC)c2)c1=O` : 3.6

---

Could you please report measured CLH for the items listed next?
Assay: Intrinsic clearance in rat hepatocytes at 0.5 uM incubated for 60 mins by LC-MS/MS analysis
Assay type: ADME, cell-based, Hepatocyte
Conditions: 1 h

Briefly, CLH measured for `CNC(=O)c1cc(C(=O)NC2CC2)cn(Cc2cccc3[nH]ccc23)c1=O` : 1.66 to 1.7 mL/min/g

Briefly, CLH measured for `CNC(=O)c1cc(C(=O)NC2CC2)cn(Cc2cccc3c2CCN3)c1=O` : < 0.8 mL/min/g

Briefly, CLH measured for `CNC(=O)c1cc(C(=O)NC2CC2)cn(Cc2cccc3[nH]ncc23)c1=O` : < 0.8 mL/min/g

Briefly, CLH measured for `CCNC(=O)c1cc(C(=O)NC)c(=O)n(Cc2ccccc2)c1` : < 0.8 mL/min/g
